# MEASURED ON: DS-Cav1 (RSV F-protein, pre-form, in-house) (respiratory syncytial virus (RSV), UniProt P03420 26-513)
# Sequence (P03420 26-524): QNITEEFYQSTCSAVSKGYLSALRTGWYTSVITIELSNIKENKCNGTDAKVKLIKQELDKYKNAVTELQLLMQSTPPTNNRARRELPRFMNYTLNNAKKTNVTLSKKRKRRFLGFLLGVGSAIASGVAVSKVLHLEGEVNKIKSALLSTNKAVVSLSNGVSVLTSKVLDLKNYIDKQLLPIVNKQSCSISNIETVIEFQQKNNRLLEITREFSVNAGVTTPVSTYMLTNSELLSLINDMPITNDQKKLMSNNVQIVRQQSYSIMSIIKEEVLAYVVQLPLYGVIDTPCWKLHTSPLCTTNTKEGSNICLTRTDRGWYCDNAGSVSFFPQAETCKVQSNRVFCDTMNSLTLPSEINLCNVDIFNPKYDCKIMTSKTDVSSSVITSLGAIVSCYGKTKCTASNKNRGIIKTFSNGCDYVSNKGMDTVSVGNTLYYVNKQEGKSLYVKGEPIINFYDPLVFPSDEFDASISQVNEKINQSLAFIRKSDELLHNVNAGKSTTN
# ASSAY SUMMARY: ELISA, coated DS-Cav1, IgG titrated
pKd: −log10 of the molar value.
EXPERIMENTAL ENDPOINT: pKd

input: Answer with reported pKd of #6m (antibody, V domains shown, Germline-edited (m) form of 2E7, light chain edited; IgG; also called 2E7 (modified)) VH: EVQLVESGGGLVKPGGSLRLSCAGSGFTFSSYTMHWVRQAPGKGLEWVSSITGGSSYVDYSASVKGRFTISRDNAQSSLYLQMNSLRAEDTAVYYCARDDYGSGSYSNWFDPWGQGTLVTVSS VL: QSVLTQPPSASGTPGQRVTISCTGSSSNIGAGYDVHWYQQLPGAAPRLLMFGNSNRPSGVPDRFSGSKSGTSASLAITGLQADDEADYYCQSYDRSLSHVFGTGTKVTVLG
output: ~8.63

input: Answer with reported pKd of #20m (antibody, V domains shown, Germline-edited (m) form of 3E10, light chain edited; IgG; also called 3E10 (modified)) VH: EVQLVESGGGLVKPGGSLRLSCAASGFTFTSYRMHWVRQAPGKGLEWVSSITGGGNYIEYADSVKGRFTISRDNAKNSLDLQMNSLRAEDTAIYYCARDMYGLGSYYSPNYFDPWGQGTLVTVSS VL: QSVLTQPPSVSGAPGQRVTISCTGSSSNIGAGYDVHWYQQVPGTAPKLLIFGSTNRPSGVPDRFSGSKSGASASLAITGLQTEDEADYYCQSYDRSLSHVFGTGTKVTVLG
output: ~9.06

input: Answer with reported pKd of #17m (antibody, V domains shown, Germline-edited (m) form of 4E1, light chain edited; IgG; also called 4E1 (modified)) VH: EVQLVESGGGLVQPGGSLRLACAASGFTFSSYTMHWVRQAPGKGLEWVSSITGGSSYVDYSASVKGRFTISRDNAQSSLYLQMNSLRAEDTAVYYCARDDYGSGSYSNWFDPWGQGTLVTVSS VL: QSVLTQPPSVSGAPGQRVTISCTGSSSNIGAGYDVHWYQQLPGRAPKLLIFANTNRPSGVPDRFSGSKSGASASLAITGLQAEDEADYYCQSYDRSLSHVFGTGTKVTVLG
output: ~8.95
